Tested on: Candida kefyr ATCC 28838
Test: In vitro antifungal MIC, Candida kefyr ATCC 28838
Assay type: cell-based
Conditions: Kluyveromyces marxianus, ATCC28838; Candida kefyr ATCC 28838; 35°-37° C., 48 hours; read-out: MIC
Criterion: MIC strictly less than 0.8 µg/mL. Met: Fulfilled. Not met: Not fulfilled.

{"molecule": "[O-][S+]1c2ccccc2SN1Cc1ccccc1 (stereo not drawn) [Example 35, 2-benzyl-1,3,2-benzodithiazole-1-oxide]", "system": "Candida kefyr ATCC 28838", "label": "Fulfilled"}
{"molecule": "[O-][S+]1c2ccccc2SN1C1CCCCCCC1 (stereo not drawn)", "system": "Candida kefyr ATCC 28838", "label": "Fulfilled"}
{"molecule": "[O-][S+]1c2ccccc2SN1CCCc1ccccc1 (stereo not drawn)", "system": "Candida kefyr ATCC 28838", "label": "Not fulfilled"}
{"molecule": "C=CCN1Sc2ccccc2[S+]1[O-] (stereo not drawn) [Example 10, 2-allyl-1,3,2-benzodithiazole-1-oxide]", "system": "Candida kefyr ATCC 28838", "label": "Fulfilled"}
{"molecule": "CCCCCCCCN1Sc2ccccc2[S+]1[O-] (stereo not drawn) [Example 6, 2-n-octyl-1,3,2-benzodithiazole-1-oxide]", "system": "Candida kefyr ATCC 28838", "label": "Fulfilled"}
{"molecule": "CN(C)CCCN1Sc2ccccc2[S+]1[O-] (stereo not drawn)", "system": "Candida kefyr ATCC 28838", "label": "Not fulfilled"}
